Hi there, I'd appreciate the recorded IC50 for every entry that follows.
System: THP-1 cells
Test: THP-1 cell assay: LPS-stimulated pSer78-Hsp27 ELISA
Assay type: cell-based
Details: Homo sapiens, PMA-differentiated THP-1 cells, compound 60 min before 20 ng/mL LPS for 30 min
Text: Materials and Reagents for Measuring Activity in THP-1 Cells: • 1) THP-1 cells (Cell bank of Shanghai) • 2) PMA (Sigma, Cat.No. P1585) • 3) LPS (Sigma, Cat.No. L4516) • 4) 96-well tissue-culture treated plate (Grenier, Cat.No. 655180) • 5) FBS (Thermofisher, Cat.No. 10100147) • 6) Complete EDTA-free protease inhibitor Cocktail (Roche, Cat.No. 4693132001) • 7) PhosSTOP (Roche, Cat.No. 4906845001) • 8) Phosphor-Hsp27 (Ser78) Sandwich Elisa kit (CST, Cat.No. 7295) […]

Prompt: Give the reported value of IC50 for this record: [2H]C([2H])([2H])N(CC1CCN(c2ccc3c(c2)Cn2cc(-c4ccc(C#N)cc4)cc2-c2nnc(C)n2-3)C1=O)C([2H])([2H])[2H] (stereo not shown) [Example 86]
Completion: 300 to 400 nM

Prompt: Give IC50 for CN(CCO)C[C@H]1CC(=O)N(c2ccc3c(c2)Cn2cc(-c4ccc(F)cc4)cc2-c2nccn2-3)C1 [Example 89]
Completion: 50 to 100 nM

Prompt: Specify measured IC50 for CNC[C@H]1CC(=O)N(c2ccc3c(c2)Cn2cc(-c4ccc(C#N)cc4)cc2-c2nccn2-3)C1 [Example 9] .
Completion: 50 to 100 nM

Prompt: Determine its reported IC50: CC(C)(N)CN1C(=O)CN(c2ccc3c(c2)Cn2cc(-c4ccc(C#N)cc4)cc2-c2nccn2-3)C1=O [Example 68]
Completion: < 50 nM

---

target: MAPKAPK2 Recombinant Human Protein (Homo sapiens); construct: purchased ThermoFisher pv3317; assay: MK2 kinase assay (Z'-LYTE kinase assay kit); conditions: inhibition of MK2 biochemical activity; 90 min incubation at room temperature
Sequence (P49137 whole entry): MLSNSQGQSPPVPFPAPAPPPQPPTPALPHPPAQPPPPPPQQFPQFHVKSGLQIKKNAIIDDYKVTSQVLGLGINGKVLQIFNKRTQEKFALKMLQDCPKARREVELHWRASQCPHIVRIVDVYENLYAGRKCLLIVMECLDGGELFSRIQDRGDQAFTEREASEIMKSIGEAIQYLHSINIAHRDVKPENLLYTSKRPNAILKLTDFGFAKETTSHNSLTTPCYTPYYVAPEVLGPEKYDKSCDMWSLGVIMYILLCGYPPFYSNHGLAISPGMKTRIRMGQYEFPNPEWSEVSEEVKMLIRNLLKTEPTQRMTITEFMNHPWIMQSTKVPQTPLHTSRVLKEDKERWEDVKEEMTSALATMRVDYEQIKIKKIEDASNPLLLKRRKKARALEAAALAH
Please go through the items and note down their IC50.

Prompt: Report its IC50 with MAPKAPK2 Recombinant Human Protein (Homo sapiens) as the test system: C[N+](C)(C)C[C@H]1CC(=O)N(c2ccc3c(c2)Cn2cc(-c4ccc(C#N)cc4)cc2-c2nccn2-3)C1
Completion: 50 to 100 nM

Prompt: State recorded IC50 with MAPKAPK2 Recombinant Human Protein (Homo sapiens), entry CC(C)(N)[C@@H]1CN(c2ccc3c(c2)Cn2cc(-c4ccc(C#N)cc4)cc2-c2nccn2-3)C(=O)O1 (single isomer, unassigned) , no comment.
Completion: < 50 nM

Prompt: Using MAPKAPK2 Recombinant Human Protein (Homo sapiens) as the test system, report measured IC50 of N#Cc1ccc(-c2cc3n(c2)Cc2cc(C(=O)NCCN4CCC4)ccc2-n2ccnc2-3)cc1 .
Completion: 100 to 200 nM

Prompt: Return reported IC50 for target or system MAPKAPK2 Recombinant Human Protein (Homo sapiens), item CN(C)CC1(C)CC(=O)N(c2ccc3c(c2)Cn2cc(-c4ccc(C#N)cc4)cc2-c2nccn2-3)C1 (stereo not shown) .
Completion: < 50 nM

Prompt: Specify the recorded IC50 for CN1CC[C@@H](N(C)C(=O)c2ccc3c(c2)Cn2cc(-c4ccc(C#N)cc4)cc2-c2nccn2-3)C1 , system: MAPKAPK2 Recombinant Human Protein (Homo sapiens).
Completion: 200 to 300 nM

Prompt: Write down measured IC50 (MAPKAPK2 Recombinant Human Protein (Homo sapiens)) for this compound. CN(C)C(C)(C)[C@H]1CC(=O)N(c2ccc3c(c2)Cn2cc(-c4ccc(C#N)cc4)cc2-c2nccn2-3)C1
Completion: < 50 nM

Prompt: With MAPKAPK2 Recombinant Human Protein (Homo sapiens) as the test system, provide measured IC50 for this compound: CN(C)CC[C@@H]1CCN(c2ccc3c(c2)Cn2cc(-c4ccc(C#N)cc4)cc2-c2nccn2-3)C1=O (single isomer, unassigned)
Completion: < 50 nM
